- Test system: Staphylococcus aureus
- Method Summary: Minimum inhibitory concentration against Staphylococcus aureus ATCC 25923
- Type: functional
Recorded MIC by entry

Below, each entry is followed by its recorded MIC result.
Chemical String	Measurement Kind	Result
COC(=O)[C@@H]1CSCc2c(O)cc(OC)c(C)c2C(=O)OCCCC/C(S)=N/1	MIC	0.5 µg/mL
COC(=O)[C@@H]1CSCc2c(O)cc(OC)c(C)c2C(=O)OCCC(=O)N1	MIC	64 µg/mL
COC(=O)[C@@H]1CSCc2c(O)cc(OC)c(C)c2C(=O)OCCCCC(=O)N1	MIC	4 µg/mL

Turning now to a further record.
Need MIC, item COC(=O)[C@@H]1CSCc2c(O)cc(OC)c(C)c2C(=O)OCC/C(S)=N/1
2 µg/mL

====

- Test system: Staphylococcus epidermidis
- Method Summary: Minimum inhibitory concentration against Staphylococcus epidermidis 16/2
- Format: functional
Mark 1 for MIC under 1 µg/mL, -1 if at or over.

Compound	Label Value
COC(=O)[C@@H]1CSCc2c(O)cc(OC)c(C)c2C(=O)OCC(NC(=O)OC(C)(C)C)C(=O)N1 (stereo partly drawn)	-1

Say whether its MIC is strictly beneath 1 µg/mL. Entry: CO[C@@H]1[C@@H](OC(N)=O)[C@@H](O)[C@H](Oc2ccc3c(O)c(NC(=O)c4ccc(O)c(CC=C(C)C)c4)c(=O)oc3c2C)OC1(C)C [NOVOBIOCIN]
1

Say whether its MIC is strictly beneath 1 µg/mL. Entry: COc1cc(O)c2c(c1C)C(=O)O[C@H](CO)CCC/C(S)=N/[C@H](c1nc(C)no1)CSC2
1

Say whether its MIC is strictly beneath 1 µg/mL. Entry: COC(=O)[C@@H]1CSCc2c(O)cc(OC)c(C)c2C(=O)OCC/C(S)=N/1
1

Say whether its MIC is strictly beneath 1 µg/mL. Entry: COC(=O)[C@@H]1CSCc2c(O)cc(O)c(C)c2C(=O)OCC(NC(=O)OC(C)(C)C)C(=O)N1 (stereo partly drawn)
-1

Say whether its MIC is strictly beneath 1 µg/mL. Entry: COC(=O)[C@@H]1CSCc2c(O)cc(OC)c(C)c2C(=O)OCCC(=O)N1
-1

Say whether its MIC is strictly beneath 1 µg/mL. Entry: COC(=O)[C@@H]1CSCc2c(O)cc(OC)c(C)c2C(=O)OCCCC/C(S)=N/1
1

====

- System: Streptococcus pyogenes
- Method Summary: Minimum inhibitory concentration against Streptococcus pyogenes b15
- Experimental Conditions: Streptococcus pyogenes; read-out: MIC
Mark Condition met for MIC under 20 µg/mL, Condition not met if at or over.

Please review the entries below; each comes with its answer.
Compound	Label Value
COc1cc(O)c2c(c1C)C(=O)OC[C@H](NC(=O)OC(C)(C)C)C(=O)N[C@H](C(N)=O)CSC2	Condition met
COC(=O)[C@@H]1CSCc2c(O)cc(OC)c(C)c2C(=O)OCC(NC(=O)OC(C)(C)C)C(=O)N1 (some centres not stated)	Condition not met
COc1cc(O)c2c(c1C)C(=O)OC[C@H](NC(=O)OC(C)(C)C)C(=O)N[C@H](C(=O)O)CSC2	Condition not met
COC(=O)[C@@H]1CSCc2c(O)cc(OC)c(C)c2C(=O)OCC/C(S)=N/1	Condition met
C=CCNC(=O)[C@@H]1CSCc2c(O)cc(OC)c(C)c2C(=O)OC[C@H](NC(=O)OC(C)(C)C)C(=O)N1	Condition met

Say whether its MIC is strictly beneath 20 µg/mL. Entry: COC(=O)[C@@H]1CSCc2c(O)cc(O)c(C)c2C(=O)OC[C@H](NC(C)=O)C(=O)N1
Condition not met

Say whether its MIC is strictly beneath 20 µg/mL. Entry: COC(=O)[C@@H]1CSCc2c(O)cc(O)c(C)c2C(=O)OCC(NC(=O)[C@@H]2C(O)CCN2C(=O)OC(C)(C)C)C(=O)N1 (some centres not stated)
Condition not met

Say whether its MIC is strictly beneath 20 µg/mL. Entry: COC(=O)[C@@H]1CSCc2c(O)cc(O)c(C)c2C(=O)OCC(NC(=O)CCO)C(=O)N1 (some centres not stated)
Condition not met

Say whether its MIC is strictly beneath 20 µg/mL. Entry: COC(=O)[C@@H]1CSCc2c(O)cc(OC)c(C)c2C(=O)OCCCC/C(S)=N/1
Condition met

Say whether its MIC is strictly beneath 20 µg/mL. Entry: COC(=O)[C@@H]1CSCc2c(O)cc(OC)c(C)c2C(=O)OCCCCC(=O)N1
Condition met

Say whether its MIC is strictly beneath 20 µg/mL. Entry: COc1cc(O)c2c(c1C)C(=O)O[C@H](CO)CCC/C(S)=N/[C@H](c1nc(C)no1)CSC2
Condition met

Say whether its MIC is strictly beneath 20 µg/mL. Entry: CO[C@@H]1[C@@H](OC(N)=O)[C@@H](O)[C@H](Oc2ccc3c(O)c(NC(=O)c4ccc(O)c(CC=C(C)C)c4)c(=O)oc3c2C)OC1(C)C
Condition met

Say whether its MIC is strictly beneath 20 µg/mL. Entry: COC(=O)[C@@H]1CSCc2c(O)cc(O)c(C)c2C(=O)OC[C@H](NC(=O)[C@@H]2CCCN2C(=O)OC(C)(C)C)C(=O)N1
Condition not met

Say whether its MIC is strictly beneath 20 µg/mL. Entry: COC(=O)[C@@H]1CSCc2c(O)cc(O)c(C)c2C(=O)OCC(NC(=O)OC(C)(C)C)C(=O)N1 (some centres not stated)
Condition not met

Say whether its MIC is strictly beneath 20 µg/mL. Entry: COC(=O)[C@@H]1CSCc2c(O)cc(OC)c(C)c2C(=O)OC[C@H](C)C(=O)N1
Condition met

Say whether its MIC is strictly beneath 20 µg/mL. Entry: COc1cc(O)c2c(c1C)C(=O)OC[C@H](NC(=O)OC(C)(C)C)C(=O)N[C@H](CO)CSC2
Condition not met

Say whether its MIC is strictly beneath 20 µg/mL. Entry: COC(=O)[C@@H]1CSCc2c(O)cc(OC)c(C)c2C(=O)OC[C@@H](C)C(=O)N1
Condition not met

====

- Experimental System: DNA gyrase (Escherichia coli) (UniProt P0AES6+P0AES4)
Measurement Kind: log10 of MNEC (log10 of the value in µg/mL)
Heads up, the numbers here are log10 of MNEC in µg/mL units.

Below, each entry is followed by its recorded log10 of MNEC result.
Compound	Experimental System	Result
COC(=O)[C@@H]1CSCc2c(O)cc(OC)c(C)c2C(=O)OC[C@H](C)C(=O)N1	DNA gyrase (Escherichia coli) (UniProt P0AES6+P0AES4)	-0.40
COC(=O)[C@@H]1CSCc2c(O)cc(OC)c(C)c2C(=O)OCCCCCC(=O)N1	DNA gyrase (Escherichia coli) (UniProt P0AES6+P0AES4)	0.30
COC(=O)[C@@H]1CSCc2c(O)cc(O)c(C)c2C(=O)OC[C@H](NC(C)=O)C(=O)N1	DNA gyrase (Escherichia coli) (UniProt P0AES6+P0AES4)	-0.40
COc1cc(O)c2c(c1C)C(=O)OC[C@H](NC(=O)OC(C)(C)C)C(=O)N[C@H](CO)CSC2	DNA gyrase (Escherichia coli) (UniProt P0AES6+P0AES4)	0.40
COC(=O)[C@@H]1CSCc2c(O)cc(O)c(C)c2C(=O)OC[C@@H](NC(=O)OC(C)(C)C)C(=O)N1	DNA gyrase (Escherichia coli) (UniProt P0AES6+P0AES4)	0.00
COC(=O)[C@@H]1CSCc2c(O)cc(O)c(C)c2C(=O)OC[C@H](N)C(=O)N1	DNA gyrase (Escherichia coli) (UniProt P0AES6+P0AES4)	0.00
COC(=O)[C@@H]1CSCc2c(O)cc(OC)c(C)c2C(=O)OC[C@@H](C)C(=O)N1	DNA gyrase (Escherichia coli) (UniProt P0AES6+P0AES4)	0.60
COc1cc(O)c2c(c1C)C(=O)OC[C@H](NC(=O)OC(C)(C)C)C(=O)N[C@H](C(N)=O)CSC2	DNA gyrase (Escherichia coli) (UniProt P0AES6+P0AES4)	-1.00
COc1cc(O)c2c(c1C)C(=O)O[C@H](CO)CC/C(S)=N/[C@H](c1nc(C)no1)CSC2	DNA gyrase (Escherichia coli) (UniProt P0AES6+P0AES4)	-2.00
COC(=O)[C@@H]1CSCc2c(O)cc(OC)c(C)c2C(=O)OCC/C(S)=N/1	DNA gyrase (Escherichia coli) (UniProt P0AES6+P0AES4)	-1.30

Need log10 of MNEC, item COC(=O)[C@@H]1CSCc2c(O)cc(OC)c(C)c2C(=O)OCCCCC(=O)N1
-1.30

Need log10 of MNEC, item COC(=O)c1c(C)c(OC)cc(O)c1CSC[C@H](/N=C(/C)S)C(=O)OC
-0.70

Need log10 of MNEC, item COc1cc(O)c2c(c1C)C(=O)CCCCC/C(S)=N/[C@H](c1nc(CNC(C)C)no1)CSC2.Cl
-2.70

Need log10 of MNEC, item COC(=O)[C@@H]1CSCc2c(O)cccc2C(=O)OCC(NC(=O)[C@H](CO)NC(=O)OC(C)(C)C)C(=O)N1 (stereo partly drawn)
-0.40

Need log10 of MNEC, item COC(=O)[C@@H]1CSCc2c(O)cc(O)c(C)c2C(=O)OC[C@H](NC(=O)OC(C)(C)C)C(=O)N1
1.00

Need log10 of MNEC, item COC(=O)[C@@H]1CSCc2c(O)cc(OC)c(C)c2C(=O)OCCCC/C(S)=N/1
-2.00

Need log10 of MNEC, item Cc1c(O)cc(O)c2c1C(=O)OCCC(=O)NCCSC2
1.30
